Tested on: HT29 colon
Assay: NCI tumour cell line growth inhibition, 48 h
measureName: TGI

# molecule, measureName, recordedMeasurement
rows = [
    ("O=C(N/N=C/c1ccccc1O)C(O)(c1ccccc1)c1ccccc1", "TGI", "> 100 µM"),
    ("c1ccc(CSc2ccccc2CN2CCN(Cc3ccccc3SCc3ccccc3)CCN(Cc3ccccc3SCc3ccccc3)CC2)cc1", "TGI", "2.42 µM"),
    ("c1ccc(CSC2(SCc3ccccc3)CCCC2)cc1", "TGI", "> 10 µM"),
    ("O=c1cc(-c2ccccc2)oc2cc(OCC(O)COc3ccc4c(=O)cc(-c5ccccc5)oc4c3)ccc12", "TGI", "> 100 µM"),
    ("CC(C)OC(=O)Nc1cccc(Cl)c1", "TGI", "> 100 µM"),
    ("Cc1cc(=O)oc2cc(SC(=O)N(C)C)ccc12", "TGI", "> 100 µM"),
    ("CC(=O)[O-].CC(=O)[O-].O=C(N/N=C/c1cc(Cl)cc(Cl)c1O)c1ccncc1.[Ni+2]", "TGI", "> 100 µM"),
    ("O=C1/C(=C\\c2ccc(F)cc2)CN(C(=O)c2ccc([N+](=O)[O-])cc2)C/C1=C\\c1ccc(F)cc1", "TGI", "3.52 µM"),
    ("Cc1ccc(/C=N/Nc2nc3ccccc3s2)s1", "TGI", "> 100 µM"),
    ("COc1cc(-c2nc(NC(C)=O)sc2-c2ccnc(NCCNS(=O)(=O)c3ccccc3)n2)ccc1Cl", "TGI", "> 100 µM"),
    ("CCOC(=O)[C@@H]1OC(c2ccccc2)O[C@H]1C(=O)OCC", "TGI", "> 100 µM"),
    ("Cc1nc2c(O)cc3c4c(=O)n(C)c(=O)n(C)c4n(Cc4ccccc4)c3c2nc1C", "TGI", "32.2 µM"),
    ("C[C@@H](N)C1CCC(C(=O)Nc2ccncc2)CC1 (stereo partly specified)", "TGI", "> 100 µM"),
    ("COC(=O)[C@@]1(Cc2ccccc2)[C@H]2c3cc(C(=O)N4CCCC4)n(Cc4ccc(OC)c(OC)c4)c3C[C@H]2CN1C(=O)c1ccccc1", "TGI", "25 µM"),
    ("CC1=C(C#N)C23C(=O)c4ccccc4C(O)=C2C(=O)C=CC3(O)N1 (stereo unspecified)", "TGI", "5.02 µM"),
    ("O=C1OC2C(O)COC2(O)C1(O)C(C[N+](=O)[O-])c1ccc(Cl)cc1 (stereo unspecified)", "TGI", "6.11 µM"),
    ("CS/C(C#N)=C(\\C#N)SC", "TGI", "64.2 µM"),
    ("Fc1ccc(-c2nn3c(CNc4ccccc4)nnc3s2)cc1", "TGI", "> 100 µM"),
    ("C=CCCOC(=O)CO[N+](=O)[O-]", "TGI", "> 100 µM"),
    ("COc1cc2c(F)nccc2cc1C(=O)N[C@@H](c1ccc(F)c(Cl)c1)[C@@H]1C[C@@H](O)CN1", "TGI", "19.6 µM"),
    ("C=C1C(=O)OC2/C=C(\\C)C3OC3/C=C(/C(=O)OC)C(O)C(OC(=O)C3(C)OC3C)C12 (stereo unspecified)", "TGI", "3.63 µM"),
    ("Oc1cccc(-c2ccc3c4c2O[C@H]2c5[nH]c6ccccc6c5C[C@@]5(O)[C@@H](C3)N(CC3CC3)CC[C@]425)c1", "TGI", "3.09 µM"),
    ("O=C1Nc2cc(Cl)ccc2N=CC1NC(=O)C(c1ccccc1)c1ccccc1Cl (stereo unspecified)", "TGI", "> 100 µM"),
    ("C=C(C)[C@@H]1CC[C@]2(C(N)=O)CC[C@]3(C)[C@H](CC[C@@H]4[C@@]5(C)CC[C@H](O)C(C)(C)[C@@H]5CC[C@]43C)[C@@H]12", "TGI", "7.42 µM"),
    ("NC1OC(COC(=O)c2ccccc2)C(O)C(OC(=O)c2ccccc2)C1OC(=O)c1ccccc1 (stereo unspecified)", "TGI", "32.5 µM"),
    ("Cc1n[n+](CC(=O)c2ccccc2)c2sc(N)nn12", "TGI", "> 100 µM"),
    ("Cc1ccccc1[P+](C)(c1ccccc1C)c1ccccc1C", "TGI", "19.1 µM"),
    ("N=c1oc2c(Br)cc(Br)cc2cc1C(=O)Nc1ccccn1", "TGI", "> 100 µM"),
    ("[O-]c1c[n+](CCCC[n+]2cc([O-])on2)no1", "TGI", "> 100 µM"),
    ("NC(=O)/C(=C\\c1ccncc1)c1cccc2ccccc12", "TGI", "> 100 µM"),
    ("O=C(NCCc1ccccc1)[C@H]1CCCC[C@@H]1CCO", "TGI", "> 100 µM"),
    ("COCc1c(CO)cnc(C)c1OC1OC(CO)C(O)C(O)C1O (stereo unspecified)", "TGI", "> 100 µM"),
    ("O=C1CCCC2=C1CC1=C(CCCC1=O)N2c1ccccc1C(=O)O", "TGI", "> 100 µM"),
    ("CSc1nc(NC2OCC(OC(C)=O)C(OC(C)=O)C2OC(C)=O)c(N=C(C)C(C)=O)c(=O)n1C (stereo unspecified)", "TGI", "> 100 µM"),
    ("c1ccc(N=c2snc3scc(-c4ccccc4)n23)cc1", "TGI", "> 100 µM"),
    ("COc1ccccc1/C=C/C(=O)c1c(O)cc2occc2c1OC", "TGI", "> 100 µM"),
    ("CC1=CC(=O)CC(C)(C)C1(O)/C=C/C(C)=C/C(=O)O (stereo unspecified)", "TGI", "> 100 µM"),
    ("CCC(=O)C1(N2CCOCC2)CCN(CCCC(=O)c2ccc(F)cc2)CC1", "TGI", "> 100 µM"),
    ("O=C(CSc1nc2ccccc2nc1-c1ccccc1)Nc1ccc(Cl)cc1", "TGI", "> 100 µM"),
    ("COc1ccc2c(c1O)C(=O)C(CCC(=O)O)CC2 (stereo unspecified)", "TGI", "> 100 µM"),
    ("CC(C)CC1C(=O)N2CCC[C@H]2C2(O)O[C@](NC(=O)C3C=C4c5cccc6[nH]c(Br)c(c56)C[C@H]4N(C)C3)(C(C)C)C(=O)N12 (stereo partly specified)", "TGI", "> 100 µM"),
]
